Sourced from the supplement of paper PMC9112550

test system: Escherichia coli TOP10; experiment: shrunken log2 fold change of peptide-encoding DNA abundance (4.5 h post-induction vs induction); higher = less antimicrobial activity (less host growth inhibition); details: time post-induction: 4.5 h; library: site-saturation at positions 5, 18, 19, 20
Classify as follows. Reported shrunken log2 fold change greater than or equal to -0.04: Yes. Reported shrunken log2 fold change below: No.

// below: answered sequences
RRIRPRPPRLPRPRPRPQEVPRP
Yes
RRIRWRPPRLPRPRPRPADLPRP
Yes
RRIRERPPRLPRPRPRPNSIPRP
No

With those in mind, consider the next sequence.
Ask: Could you please find out whether RRIRLRPPRLPRPRPRPCKPPRP has shrunken log2 fold change that meets -0.04 or exceeds it?
Reply: No

----------
test system: Escherichia coli TOP10; assay: shrunken log2 fold change of peptide-encoding DNA abundance (4.5 h post-induction vs induction); higher = less antimicrobial activity (less host growth inhibition); settings: time post-induction: 4.5 h; library: site-saturation at positions 5, 18, 19, 20
Classify as follows. Reported shrunken log2 fold change greater than or equal to -0.002: True. Reported shrunken log2 fold change below: False.

// below: answered sequences
RRIRMRPPRLPRPRPRPCKEPRP
False
RRIRSRPPRLPRPRPRPGEMPRP
True
RRIRTRPPRLPRPRPRPAQKPRP
False

Ask: Could you please find out whether RRIRKRPPRLPRPRPRPQDHPRP has shrunken log2 fold change that meets -0.002 or exceeds it?
Reply: True

Ask: Could you please find out whether RRIRQRPPRLPRPRPRPVEGPRP has shrunken log2 fold change that meets -0.002 or exceeds it?
Reply: True

Ask: Could you please find out whether RRIRTRPPRLPRPRPRPAWIPRP has shrunken log2 fold change that meets -0.002 or exceeds it?
Reply: False

----------
Each entry below lists one item and its recorded shrunken log2 fold change value.
tested on: Escherichia coli TOP10; assay: shrunken log2 fold change of peptide-encoding DNA abundance (4.5 h post-induction vs induction); higher = less antimicrobial activity (less host growth inhibition); conditions: time post-induction: 4.5 h; library: site-saturation at positions 5, 18, 19, 20

As a guide, the following entries are already answered.
RRIRARPPRLPRPRPRPFEQPRP
-0.072
RRIRGRPPRLPRPRPRPKDVPRP
-0.0336
RRIRLRPPRLPRPRPRPENDPRP
-0.336
RRIRPRPPRLPRPRPRPRALPRP
0.388
RRIRHRPPRLPRPRPRPPMGPRP
0.343

The recorded shrunken log2 fold change for RRIRGRPPRLPRPRPRPKYKPRP is 0.0104

The recorded shrunken log2 fold change for RRIRERPPRLPRPRPRPEITPRP is -0.045

The recorded shrunken log2 fold change for RRIRARPPRLPRPRPRPRSCPRP is 0.306

The recorded shrunken log2 fold change for RRIRGRPPRLPRPRPRPLQSPRP is 0.746

The recorded shrunken log2 fold change for RRIRNRPPRLPRPRPRPMMLPRP is -0.0295

The recorded shrunken log2 fold change for RRIRRRPPRLPRPRPRPKPGPRP is 0.535

----------
system: Escherichia coli TOP10; assay: shrunken log2 fold change of peptide-encoding DNA abundance (4.5 h post-induction vs induction); higher = less antimicrobial activity (less host growth inhibition); conditions: time post-induction: 4.5 h; library: site-saturation at positions 5, 18, 19, 20;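 further: peptides expressed intracellularly from a pBAD plasmid library in pooled LB shake-flask culture, induced with 0.3% L-arabinose, DNA abundance read by NGS, three biological replicates, DESeq2 with apeglm shrinkage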
Classify as follows. Reported shrunken log2 fold change greater than or equal to -0.2: Condition met. Reported shrunken log2 fold change below: Condition not met.

// below: answered sequences
RRIRSRPPRLPRPRPRPNMFPRP
Condition not met
RRIRLRPPRLPRPRPRPSPSPRP
Condition not met
RRIRFRPPRLPRPRPRPVQLPRP
Condition met

Ask: Could you please find out whether RRIRERPPRLPRPRPRPSICPRP has shrunken log2 fold change that meets -0.2 or exceeds it?
Reply: Condition met
